Attribution: PubChem BioAssay

assay: binders from COS7 lysate, DM2A8 probe, primary screen, torsin A project, cell lysate, small-molecule microarray, fluorescence 635/667 (AID 1065); conditions: higher = more signal, COS7 lysate expressing mutant human TOR1A
Recorded composite z-score values for a group of molecules are listed next.
Format: numeric value only, no unit, no commentary.

[[record]]
molecule = "O=C1O[C@H](c2ccccc2)[C@H](c2ccccc2)N2[C@H]1[C@@H](C(=O)Nc1nc3ccccc3s1)[C@]1(C(=O)Nc3ccc(C#CCCO)cc31)[C@H]2c1ccc(OCCO)cc1"
numeric_value = 0.135

[[record]]
molecule = "CN1C(=O)C2C=CC(C(O)C3=C[C@H]4C[C@@H](C3)C4(C)C)N(Nc3ccccc3)C2C1=O (stereo partly drawn)"
numeric_value = 0.329

[[record]]
molecule = "COC(=O)C(CC#Cc1ccc2c(c1)[C@]1(C(=O)N2)[C@H](C(=O)O)[C@H]2C(=O)O[C@H](c3ccccc3)[C@H](c3ccccc3)N2[C@@H]1c1ccc(O)cc1)C(=O)OC"
numeric_value = 0.108

[[record]]
molecule = "CC(C)(C)OC(=O)CC[C@@]1(C(N)=O)N=C(c2ccc(OCCCO)cc2)O[C@@H]1c1ccccc1"
numeric_value = 1.93

[[record]]
molecule = "C=CC[C@]12N=C(c3ccc(OCCCO)cc3)O[C@H]1c1ccccc1N(Cc1ccccc1)C2=O"
numeric_value = 0.473


In the following, a different molecule is considered.
For CC(C)C[C@@H]1NC(=O)[C@H]2C[C@@H](C(=O)NCCCCCCN(C)C)[C@@H](c3ccc(O)cc3)N2C1=O , write its composite z-score.
1.44
